system: LOX IMVI melanoma; assay: NCI-60 one-dose screen, 48 h (100 = growth as untreated, 0 = no growth, -100 = all killed); settings: 10 µM unless noted
About 83,000 compounds went through this panel and 20% of them were active in at least one assay; those are over-represented in the sample as a whole.
Reported growth values for the following molecules.
Only the number, expressed in %, is required.

Consider the worked cases shown below.
molecule	study_target	readout_label	measurement
CCOC(=O)c1ccc(NC(=O)NC2=NCCS2)cc1	LOX IMVI melanoma	growth	92.4
COc1ccc(/C(=C\c2cc(OC)c(OC)c(OC)c2)C(=O)N2CCN(c3ccccc3)CC2)cc1O	LOX IMVI melanoma	growth	94
COc1ccc(C2CC(c3ccc(Nc4ccnc5cc(Cl)ccc45)cc3)=NN2c2ccccc2)cc1 (centres undefined)	LOX IMVI melanoma	growth	100

// query Give reported growth value for `CC(=O)Nc1ccc(Cl)cc1Cl`
// result 93.8

###

Test system: HCC-2998 colon
Assay: NCI-60 one-dose screen, 48 h
Details: 10 µM unless noted
Procedure: Growth inhibition of the HCC-2998 human tumor cell line is measured as a screen for anti-cancer activity. Cells are grown in 96 well plates and exposed to the test compound for 48 hours. Compounds are tested at a single concentration, which is 10^-5 M for most compounds. The reported endpoint is percent growth (GI% or GIPRCNT), where numbers from 0 - 100% represent growth inhibition, and numbers from -100% - 0 represent cell death. For example, a value of 40 represents 60% growth inhibition. […]
Compounds without any hit were thinned out: in the full panel of roughly 83,000, 20% have a hit. Calls of active or inactive are those of the source. Rule for the calls: active = growth percent below 10; inactive = the rest.
API: response.call in yes = active, no = inactive

Record excerpt, results attached:
compound	study_target	cat
CCCCCCCCCCCCCC[N+](C)(C)CCCCCCCCCCCCCC	HCC-2998 colon	no
COc1cccc2nc(Nc3cccc(NC(=O)c4ccc(N5CCN(C)CC5)c(C(F)(F)F)c4)c3)ccc12	HCC-2998 colon	yes
COc1ccc(C2C=C(c3ccc(Cl)cc3)N=C3SC=CN32)cc1 (stereo not given)	HCC-2998 colon	no
CC(C)(C)CC(C)(C)NCc1cc(C(C)(C)C)cc(CNC(C)(C)CC(C)(C)C)c1O	HCC-2998 colon	no
COc1cc(C2=NOC(c3cc(OC)c(OC)c(OC)c3)C2)ccc1OCCCCOc1cc2c(cc1OC)C(=O)N1CCC[C@H]1C=N2 (stereo not given in full)	HCC-2998 colon	yes
COc1cc2c(cc1I)-c1c(cc(OC)c(OC)c1OC)CC[C@@H]2NC(C)=O	HCC-2998 colon	yes
O=C(CI)NCCNc1cccc2c(S(=O)(=O)O)cccc12	HCC-2998 colon	no
Nc1nc(N)c2cc(CNc3ccc(Cl)c(Cl)c3)ccc2n1	HCC-2998 colon	yes

// query Check the results log: what was the call for `COc1cc(/C=C/C(=O)c2c(C)nc3ccccc3c2C)ccc1OCCCOc1cc2c(cc1OC)C(=O)N1CCC[C@H]1C=N2` ?
// result yes

// query Please state the recorded outcome for this compound: COc1ccc2c(c1)CCCC21C(=O)Nc2c(Cl)cccc21 (stereo not given)
// result no

// query Which result was noted for this compound in the test: CC1=NC(c2ccc(Cl)cc2)C2=C(N1)/C(=C/c1ccc(Cl)cc1)CCC2 (stereo not given)
// result no

###

growth by entry:
system: MDA-MB-231 breast; assay: NCI-60 one-dose screen, 48 h (100 = growth as untreated, 0 = no growth, -100 = all killed); conditions: 10 µM unless noted
The panel holds about 83,000 compounds, 20% with a hit somewhere; the sample as a whole holds those more often.
Numeric answer only, unit % assumed.

compound	growth / %
CN(C)c1ccc(/C=N/Nc2nnc3n2N=C(c2ccc(Cl)cc2)CS3)cc1	101
CCN(C)CCCOc1ccc(/C(=C(\C)Cc2cccc(OC)c2)c2ccc(OC(C)=O)cc2)cc1	104

// below: growth requested for another compound
// query Quote growth reported for CCc1ccc2c(c1)N(CCO)C1=C(C(=O)OC1)C2c1cccc(Cl)c1 (stereo not drawn) please.
// result 30.8

###

Tested on: T-47D breast
Test: NCI-60 one-dose screen, 48 h (100 = growth as untreated, 0 = no growth, -100 = all killed)
Conditions: 10 µM unless noted
Description: Growth inhibition of the T-47D human tumor cell line is measured as a screen for anti-cancer activity. Cells are grown in 96 well plates and exposed to the test compound for 48 hours. Compounds are tested at a single concentration, which is 10^-5 M for most compounds. The reported endpoint is percent growth (GI% or GIPRCNT), where numbers from 0 - 100% represent growth inhibition, and numbers from -100% - 0 represent cell death. For example, a value of 40 represents 60% growth inhibition. […]
This is part of a sample that, as a whole, favours compounds with a hit. Of some 83,000 tested, about 20% had one in any assay.
growth reference
The figure you give is taken to be in %; do not add the unit.

compound	value_units	measurement
COc1cc2nccc(Oc3ccc(NC(=O)C4(C(=O)Nc5ccc(F)cc5)CC4)cc3)c2cc1O	%	55.3
CCOC(=O)c1ccccc1SC(C[N+](=O)[O-])c1ccccc1 (stereo not drawn)	%	60.6

// query Fill in growth for record CC(=O)OC1Oc2cc(C)c(C)cc2-c2oc(=O)c(-c3cc4ccccc4oc3=O)cc21 (stereo not drawn)
// result 91.9

###

test system: ACHN renal; experiment: NCI-60 one-dose screen, 48 h (100 = growth as untreated, 0 = no growth, -100 = all killed); details: 10 µM unless noted
The panel holds about 83,000 compounds, 20% with a hit somewhere; the sample as a whole holds those more often.
readout_label: growth (%)
I only need the number, in %, no unit after it.

For orientation, consider the following solved cases.
compound	value_units	measurement
CC(=O)N1N=C(c2ccc(C)cc2)CC1c1cn(-c2ccccc2)nc1-c1cccc(Nc2ccnc3cc(Cl)ccc23)c1 (stereo not drawn)	%	81.2
COc1ccc(/C(=C\c2ccc3c(c2)OCO3)C(=O)Nc2nc3ccccc3s2)cc1	%	96.6

// query Quick one: give measured growth for `COc1ccc(C2=Nn3c(nnc3-c3ccc(Cl)cc3N)SC2)cc1`
// result 97

###

system: HCC-2998 colon; assay: NCI-60 one-dose screen, 48 h (100 = growth as untreated, 0 = no growth, -100 = all killed); conditions: 10 µM unless noted
About 83,000 compounds went through this panel and 20% of them were active in at least one assay; those are over-represented in the sample as a whole. Activity calls are given as the source filed them. The calls were made as follows: active = growth percent below 10; inactive = the rest.
readout_label: growth

For orientation, consider the following solved cases.
compound	growth
COc1cccc(OCC(O)CN2CCN(c3ccccc3)CC2)c1 (centres undefined)	106% (inactive)
O=C(Nc1ccc2ncnc(Nc3ccc(F)c(Cl)c3)c2c1)c1cccs1	99.2% (inactive)

// query GET growth where system = HCC-2998 colon and item = `CCc1ccc(Nc2cc(C)c3ccc(O)cc3n2)cc1`
// result -59.8% (active)

// query Write down measured growth (HCC-2998 colon) for this compound. `O=S(=O)(NCC[C@@H]1C[C@H]1c1ccc2ccccc2c1)c1ccc(C(F)(F)F)cc1`
// result 101% (inactive)

###

test system: HOP-62 NSCLC; assay: NCI-60 one-dose screen, 48 h (100 = growth as untreated, 0 = no growth, -100 = all killed); details: 10 µM unless noted
This is part of a sample that, as a whole, favours compounds with a hit. Of some 83,000 tested, about 20% had one in any assay.
readout_label: growth (%)
State the answer as a number, implicitly in %.

Previously resolved entries follow.
molecule	growth [%]
CC(C)NCCCCCNc1cc(O)cc2cccnc12	71.5
Cc1cc(C#Cc2ccccc2)ccc1-n1c(/C=C/c2ccc(F)cc2)nc2ccccc2c1=O	122
CC1(C)C(N(O)C(=O)Nc2ccc(Cl)cc2)N(c2ccc(Cl)cc2)C(=O)N1CC(=O)N/N=C/C=C/c1ccc([N+](=O)[O-])o1 (stereo not given)	36.8

// query Look up growth of `CC(C)c1[nH]ncc1-c1nc2ccc3[nH]ncc3c2c2c1CCCC2` and report it.
// result 30.5

// query State, in one line, measured growth of `COc1cccc(Cn2c(-c3nonc3NC(C)=O)nc3ccccc32)c1`
// result 38.9

###

tested on: OVCAR-3 ovarian; assay: NCI-60 one-dose screen, 48 h; conditions: 10 µM unless noted
This is part of a sample that, as a whole, favours compounds with a hit. Of some 83,000 tested, about 20% had one in any assay. Calls of active or inactive are those of the source. The calls were made as follows: active = growth percent below 10; inactive = the rest.
Please reply with one of these outcomes: active, inactive

compound	cat
CCOc1cccc(/C=N/NC(=O)c2ccc(Nc3ccnc(C(F)(F)F)c3)cc2)c1O	inactive

// query Recorded call for `O=C(O)Cn1ccc2ccccc21` ?
// result inactive

// query How was `COCCCNCC(=O)Nc1c(C)cccc1C` classified in this test?
// result inactive

// query Call for entry `O=C1C(Cl)=C(N/N=c2/[nH][nH]/c(=N/NC3=C(Cl)C(=O)c4ccccc4C3=O)c3ccccc23)C(=O)c2ccccc21` :
// result inactive
